Test system: OVCAR-3 ovarian
measurement-notes: NCI tumour cell line growth inhibition, 48 h

>  <compound>
COc1ccccc1/C=C1\CCC(CN2CCOCC2)C1=O (configuration not stated)

>  <study-system>
OVCAR-3 ovarian

>  <TGI>
15.2 µM

$$$$
>  <compound>
CCCC1(N2C(=O)c3ccc4c5c(ccc(c35)C2=O)N(C2(CCC)CCCCC2)C4=O)CCCCC1

>  <study-system>
OVCAR-3 ovarian

>  <TGI>
> 100 µM

$$$$
>  <compound>
Clc1ccc2c(c1)CC1C[N+]3=C(CCCCC3)C1=C2 (configuration not stated)

>  <study-system>
OVCAR-3 ovarian

>  <TGI>
> 100 µM

$$$$
>  <compound>
O=C(N/N=C/c1cc(Cl)cc(Cl)c1[O-])c1ccccc1O.O=C(N/N=C/c1cc(Cl)cc(Cl)c1[O-])c1ccccc1O.[Cu+2]

>  <study-system>
OVCAR-3 ovarian

>  <TGI>
0.778 µM

$$$$
>  <compound>
O=[N+]([O-])c1ccc(C2NC(=S)NC3c4cc([N+](=O)[O-])ccc4CCCC23)cc1 (configuration not stated)

>  <study-system>
OVCAR-3 ovarian

>  <TGI>
> 100 µM

$$$$
>  <compound>
COC(=O)CCc1cc(OC)c2oc(-c3ccc(OC)c(OC)c3)c(CO)c2c1

>  <study-system>
OVCAR-3 ovarian

>  <TGI>
> 100 µM

$$$$
>  <compound>
CCCCCC1CC(C(C)=O)CN1c1ccc(F)cc1 (configuration not stated)

>  <study-system>
OVCAR-3 ovarian

>  <TGI>
90.1 µM

$$$$
>  <compound>
CCc1cc2c(Nc3ccccc3)c3c(nc2s1)CCCC3

>  <study-system>
OVCAR-3 ovarian

>  <TGI>
> 100 µM

$$$$
>  <compound>
[O-][N+]1=C(c2ccccc2)/C(=C2/C(c3ccccc3)=[N+]([O-])c3ccccc32)Cc2ccccc21

>  <study-system>
OVCAR-3 ovarian

>  <TGI>
38.1 µM

$$$$
>  <compound>
COc1cc(C2SCC(=O)N2c2ccc(Cl)cc2)cc(OC)c1OC (configuration not stated)

>  <study-system>
OVCAR-3 ovarian

>  <TGI>
> 100 µM

$$$$
>  <compound>
O=C(O)c1ccccc1/C=N\N(CCO)C1=NCCN1

>  <study-system>
OVCAR-3 ovarian

>  <TGI>
> 100 µM

$$$$
>  <compound>
NS(=O)(=O)c1ccc(-n2nc(-c3ccccc3)cc2-c2cc(O)ccc2O)cc1

>  <study-system>
OVCAR-3 ovarian

>  <TGI>
> 100 µM

$$$$
>  <compound>
CN(CCO)c1nc(=O)c2c(n1C1OC(CO)C(O)C(O)C1O)CCCC2 (configuration not stated)

>  <study-system>
OVCAR-3 ovarian

>  <TGI>
> 100 µM

$$$$
>  <compound>
Nc1nc(N)c2c(-c3ccccc3)ccnc2n1

>  <study-system>
OVCAR-3 ovarian

>  <TGI>
> 100 µM

$$$$
>  <compound>
O=C1/C(=C/c2cccc([N+](=O)[O-])c2)Cc2ccccc21

>  <study-system>
OVCAR-3 ovarian

>  <TGI>
> 100 µM

$$$$
>  <compound>
CCCc1cn2c(/C=N/N=C(N)N)c(-c3ccc([N+](=O)[O-])cc3)nc2s1

>  <study-system>
OVCAR-3 ovarian

>  <TGI>
0.377 µM

$$$$
>  <compound>
Cn1cc(-c2csc(-c3cn(CCCN4CCCCC4)c4ccc(Br)cc34)n2)c2cccnc21

>  <study-system>
OVCAR-3 ovarian

>  <TGI>
3.38 µM

$$$$
>  <compound>
O=C(O)c1ccc(Nc2nc3ccc(C(F)(F)F)cc3nc2C(=O)O)cc1

>  <study-system>
OVCAR-3 ovarian

>  <TGI>
> 100 µM

$$$$
>  <compound>
O=C(O)CC(S)C(=O)O.[Li+].[Sb] (configuration not stated)

>  <study-system>
OVCAR-3 ovarian

>  <TGI>
> 100 µM

$$$$
>  <compound>
O=C(Nc1cccc(-n2ccc3c(NC(=O)c4ccccc4)nccc32)c1)c1ccc(Cl)c(Cl)c1

>  <study-system>
OVCAR-3 ovarian

>  <TGI>
0.162 µM

$$$$
>  <compound>
COc1cc2cnc3c4cc(O)ccc4ccc3c2cc1OC

>  <study-system>
OVCAR-3 ovarian

>  <TGI>
> 100 µM

$$$$
>  <compound>
O=C(/C=C/c1ccc(O)c(O)c1)c1ccc(O)cc1O

>  <study-system>
OVCAR-3 ovarian

>  <TGI>
37.4 µM

$$$$
>  <compound>
O=C(C(=O)c1cccnc1)c1cccnc1

>  <study-system>
OVCAR-3 ovarian

>  <TGI>
> 100 µM

$$$$
>  <compound>
O=C1Nc2n[nH]c(=S)n2NC12c1ccccc1-c1ccccc12

>  <study-system>
OVCAR-3 ovarian

>  <TGI>
> 100 µM

$$$$
>  <compound>
COc1ccccc1-c1ccc2c(N)c(C(=O)c3ccc4c(c3)OCO4)sc2n1

>  <study-system>
OVCAR-3 ovarian

>  <TGI>
22 µM

$$$$
>  <compound>
CSc1c(S(C)=O)c2ccccc2n1C (configuration not stated)

>  <study-system>
OVCAR-3 ovarian

>  <TGI>
> 100 µM

$$$$
>  <compound>
CCCCCCCCCCCCSC1=CC(=O)C=CC1=O

>  <study-system>
OVCAR-3 ovarian

>  <TGI>
7.91 µM

$$$$
>  <compound>
CCCCCCCC(=O)OC(COC(=O)Cc1ccccc1)COC(=O)C(C)(C)C (configuration not stated)

>  <study-system>
OVCAR-3 ovarian

>  <TGI>
> 100 µM

$$$$
>  <compound>
Oc1c(Cl)c(Cl)c(O)c(-c2cnc(-c3ncc(-c4c(O)c(Cl)c(Cl)c(O)c4Cl)s3)s2)c1Cl

>  <study-system>
OVCAR-3 ovarian

>  <TGI>
52.4 µM

$$$$
>  <compound>
CC(Oc1ccc2c(=O)cc(-c3ccccc3)oc2c1)C(=O)O (configuration not stated)

>  <study-system>
OVCAR-3 ovarian

>  <TGI>
> 100 µM

$$$$
>  <compound>
CC(=O)Oc1ccc(C)c2c1[C@H]1CC[C@]3(C)[C@@H](OC(C)=O)CC[C@H]3[C@@H]1CC2

>  <study-system>
OVCAR-3 ovarian

>  <TGI>
33.1 µM

$$$$
>  <compound>
Cn1c2ccccc2c(=NNc2ccc(S(=O)(=O)N=C(N)N)cc2)c2ccccc21

>  <study-system>
OVCAR-3 ovarian

>  <TGI>
23 µM

$$$$
>  <compound>
COc1ccc(C(=O)Nc2ccn(CCOC(=O)c3ccc(OC)cc3)c(=O)n2)cc1

>  <study-system>
OVCAR-3 ovarian

>  <TGI>
> 100 µM

$$$$
>  <compound>
COc1cc2c(cc1OC)-c1c(c3ccc([N+](=O)[O-])cc3c(=O)n1CCCN=[N+]=[N-])C2=O

>  <study-system>
OVCAR-3 ovarian

>  <TGI>
> 100 µM

$$$$
>  <compound>
Cc1ccc(C(CCO)CCO)nc1

>  <study-system>
OVCAR-3 ovarian

>  <TGI>
> 100 µM

$$$$
>  <compound>
CC1(C)C=C(N2CCN(C3=CC(C)(C)NC(C)(C)C3)CC2)CC(C)(C)N1

>  <study-system>
OVCAR-3 ovarian

>  <TGI>
> 100 µM

$$$$
>  <compound>
CCOC(=O)Nc1cc2c(c(N)n1)N=C(c1ccccc1)CN2

>  <study-system>
OVCAR-3 ovarian

>  <TGI>
< 0.0001 µM

$$$$

###

Test system: SR leukemia
measurement-notes: NCI tumour cell line growth inhibition, 48 h; in the data active = GI50 below about 0.43 µM; inactive = the rest
Outcome codes: 1 for active, 0 for inactive

>  <compound>
CC1OC(OC2C(O)C(OCCc3ccc(O)c(O)c3)OC(CO)C2OC(=O)/C=C/c2ccc(O)c(O)c2)C(O)C(O)C1O (centres undefined)

>  <study-system>
SR leukemia

>  <label>
0

$$$$
>  <compound>
Cn1c2ccccc2c2c(=O)n(CCCC(=O)NCCc3cnc[nH]3)c3c(-c4ccccc4)nnn3c21

>  <study-system>
SR leukemia

>  <label>
0

$$$$
>  <compound>
COc1cc(Cn2c3ccccc3c3cc(C)cc(OC)c32)cc2c1[nH]c1ccccc12

>  <study-system>
SR leukemia

>  <label>
0

$$$$
>  <compound>
CCc1c2c(nc3ccc(OC(=O)OCc4ccc(B5OC(C)(C)C(C)(C)O5)cc4)cc13)-c1cc3c(c(=O)n1C2)COC(=O)[C@]3(O)CC

>  <study-system>
SR leukemia

>  <label>
1

$$$$

###

System: UACC-257 melanoma
measurement-notes: NCI tumour cell line growth inhibition, 48 h
# key: entry, value: TGI
measure: TGI

>  <compound>
CC(C)(C)C1CCC2c3c([nH]c4ccccc34)C3C(=O)N(c4cc(Cl)ccc4Cl)C(=O)C3C2C1 (stereo not drawn)

>  <result>
> 100 µM

$$$$
>  <compound>
COc1ccc2[nH]cc(C3(c4c[nH]c5ccc(OC)cc45)C(=O)Nc4ccc(Cl)cc43)c2c1

>  <result>
> 100 µM

$$$$
>  <compound>
Fc1ccc(-c2c(-c3ccncc3)[nH]c3cccnc23)cc1

>  <result>
> 25 µM

$$$$
